test: NCI Yeast Anticancer Drug Screen. Data for the cln2 rad14 strain (AID 165);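 further: 0% = growth equal to vehicle treated cultures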; conditions: S. cerevisiae cln2 rad14 strain, at 50.0 µM, hits give high values
This is part of a sample that, as a whole, favours compounds with a hit. Of some 79,000 tested, about 15% had one in any assay. Active and inactive are the calls of the source. No stated cut-off is given here; in the data, active means growth inhibition above about 70%; inactive means the rest.
reported-property: growth inhibition

| compound | growth inhibition |
| --- | --- |
| COc1cc(NC(C)=O)c2nccnc2c1 | -20.6% (inactive) |
| C=CCCCOC(C)=O | 4% (inactive) |
| CN1C(NC(=O)C(C)(C)O)C(C)(C)C(C)(C)C1NC(=O)C(C)(C)O (configuration not stated) | 6.8% (inactive) |
| CCOC(=O)/C=C/SCCCC(=O)O | -22.8% (inactive) |

Please state, for each entry, its recorded growth inhibition.
1. CCC(CO)c1ccccc1 (configuration not stated)
2. CCCCN=C(OC1C=CCCC1)SC (configuration not stated)
3. CC(=O)OCC1OC(n2cnc([N+](=O)[O-])c2C#N)C(OC(C)=O)C1OC(C)=O (configuration not stated)

1: -25.4% (inactive); 2: 9.95% (inactive); 3: 30.1% (inactive)

====

Could you please report measured growth inhibition for the items listed next?
experiment: NCI Yeast Anticancer Drug Screen. Data for the mec2-1 strain (AID 157); conditions: S. cerevisiae mec2-1 strain, at 50.0 µM, hits give high values
Compounds without any hit were thinned out: in the full panel of roughly 79,000, 15% have a hit.
Give bare numbers, in %.

As a guide, the following entries are already answered.
| compound | units | measured-number |
| --- | --- | --- |
| CC(C)(C(N)=O)c1ccccc1 | % | -3.85 |
| Cc1ccc(S(=O)(=O)Oc2ccc(N(CC(=O)O)S(=O)(=O)c3ccc(C)cc3)cc2)cc1 | % | 9.8 |
| CCS(=O)c1ncc2cnccn12 (stereo unspecified) | % | 1.3 |
| COC(=O)C1C(C)C1c1ccc2c(c1)OCO2 (stereo unspecified) | % | 2.05 |
| Cc1ccc(NC(=S)NC(=O)c2ccccc2)cc1 | % | 4.95 |

// for each compound in input: emit growth inhibition
1. COc1ccccc1Nc1nc(-c2ccc([N+](=O)[O-])o2)cs1
2. O=C1c2ccccc2N(Cc2cccc(F)c2)C2=NCCCC12 (stereo unspecified)
3. CN1CCN(CCCO)CC1
4. COC(=O)C(=O)c1c(C2CC2)[nH]c2[nH]n(-c3ccccc3)c(=O)c2c1=O
5. O=C(OCOC(=O)N1CCOCC1)N1CCOCC1
6. Nc1cc2c(cc1Br)-c1ccc(Cl)cc1C2=O

1: 36.2; 2: -39; 3: 3.3; 4: 20.1; 5: -7.25; 6: 5

====

test: NCI Yeast Anticancer Drug Screen. Data for the rad50 strain (AID 155);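 further: 0% = growth of vehicle-only cultures of the same strain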; conditions: S. cerevisiae rad50 strain growth inhibition; at 50.0 µM; hits give high values
This is part of a sample that, as a whole, favours compounds with a hit. Of some 79,000 tested, about 15% had one in any assay.
Field: growth inhibition. Provide a value for each of the molecules that follow.
Answers are plain numbers, in %.

| molecule | growth inhibition / % |
| --- | --- |
| C1=CC2C3CSCC3C1C1CC21 (configuration not stated) | 7.95 |
| Nc1ncnc(N)c1NC(=O)c1cccc(-c2ccccc2)c1 | 2.85 |
| O=C1OC(/C=C/c2ccccc2)C(=O)C1=O (configuration not stated) | -4 |
| CC1(C)C2CC=C(/C=N\Nc3ccc([N+](=O)[O-])cc3[N+](=O)[O-])C1C2 (configuration not stated) | -1.5 |
| O=c1oc2ccc([N+](=O)[O-])cc2cc1-c1csc(-c2ccccc2)n1 | 3 |

Provide the reported growth inhibition of each entry below, same order.
1. O=C1c2cccc3cc([N+](=O)[O-])cc(c23)C(=O)N1Cc1ccco1
2. O=C(O)c1c(Br)c(Br)c(Br)c(Br)c1C1c2ccc(O)cc2Oc2cc(O)ccc21
3. O=C(Cc1ccccc1)Nc1ccc([N+](=O)[O-])cc1Cl
4. COc1ccc2nc(N(C)C)cc(N(C)C)c2c1

1: 24.6; 2: 20.4; 3: 4.95; 4: -10.6

Items follow; give growth inhibition for each.
1. CCc1n[nH]c(=S)n1/N=C/c1ccc(-c2ccc([N+](=O)[O-])cc2)o1
2. CCC(=O)Oc1c2ccsc2c(OC(=O)CC)c2ccsc12
3. COc1ccccc1NC(=S)NCCO
4. CC/C(CC(C)CC)=N\O (configuration not stated)
5. CSC1=NNC(c2ccccc2)=C(c2ccccc2)S1

1: 14.6; 2: 29.1; 3: 7.25; 4: -17.4; 5: -1.55

I would be grateful if you could provide growth inhibition for each of the following entries.
1. O=C(Nc1ccc(Cl)cc1)Nc1nnc2nc(C(C(=O)c3ccc(O)cc3O)c3nc4nnc(NC(=O)Nc5ccc(Cl)cc5)n4[nH]c3=O)c(=O)[nH]n12
2. Nc1ncnc2c1ncn2C1C=CC(COS(N)(=O)=O)C1 (configuration not stated)
3. CC(C)(C)OC(=O)CN1C(=O)CCC1=O
4. O=c1[nH]c2cc(Cl)ccc2nc1/C=C(\O)c1cccc(O)c1
5. C=C1CCC2[C@](C)(CCC[C@]2(C)C(=O)O)[C@@H]1CCc1ccoc1 (some centres not stated)
6. c1ccc(-c2cc(-c3cc(-c4ccccc4)n[nH]3)[nH]n2)cc1
7. COc1cc(C(=O)Nc2c3ccccc3nc3ccccc23)cc(OC)c1OC

[25.6, 13.2, 6.25, -3.45, 70.8, -9.95, -19.9]

The following molecules each have a reported value; give each one's growth inhibition.
1. CCCCCCCCSC#N
2. C=CCNC(=S)/N=C\c1c(C)[nH]n(-c2ccccc2)c1=O
3. FC(F)(F)c1ccc(Cl)c(N=C=S)c1
4. O=C1C(Cc2ccc(O)cc2)NC(=S)N1c1ccccc1 (configuration not stated)
5. OCCN(CO)CCO
6. C=C(C(=C)N1N=NC2C3CCC(C3)C21)N1N=NC2C3CCC(C3)C21 (configuration not stated)
7. Nc1nnnn1NC(=O)c1ccccc1
8. CC(=O)C1C(=O)C(=O)N(CCN2C(=O)C(=O)C(C(C)=O)C2=O)C1=O (configuration not stated)

[7.95, -23.8, -26.1, 0.6, -23.8, -5.9, -2.1, -12.4]

Below are 4 molecules. Give each one its growth inhibition.
1. CC(=O)C(C)C(=O)N1C(=O)N(C)C2(C)N(C)C(=O)NC12C (configuration not stated)
2. OC1(c2ccccc2)c2ccccc2NC2=NCCN21 (configuration not stated)
3. CN(C)c1ccc(C2(c3ccc(N(C)C)cc3)OC(=O)c3cc(N(C)C)ccc32)cc1
4. Clc1ccccc1C1Nc2ccccc2S1 (configuration not stated)

1. 2.05
2. -14.7
3. 4.55
4. 39.7

Hello, I would appreciate it if you could give growth inhibition for each entry below.
1. COC(=O)[C@]1(C)OP(OC)(OC)(OC)O[C@]1(C)C(=O)OC
2. CC1=C(C(=O)Nc2ccc([N+](=O)[O-])cc2)C(c2cccc([N+](=O)[O-])c2)C(C(=O)Nc2ccc([N+](=O)[O-])cc2)=C(C)N1

1: -3.4; 2: -9.25

Field: growth inhibition. Fill in for each record below.
1. CCCC#CCN(CCCC)CCCC
2. CCOc1ccc(N=C=S)cc1
3. O=C(O)COc1ccc2ccccc2c1 (tested in a mixture with another compound)

1: -8.95; 2: 29.9; 3: -36

Okay, here is my list. What is growth inhibition for each of these?
1. O=S(=O)(SC1=NCCN1)c1ccc2ccccc2c1
2. N#CC(C#N)=C(N)/C(C#N)=C/c1ccc2ccccc2n1
3. O=C(/C=C/c1cccs1)c1ccc(Cl)cc1
4. Cc1cccc(C)c1NC(=O)CCC/C(CC(=O)c1ccc(F)cc1)=N\NC(=O)C(=O)NN
5. Cc1ccccc1C1OC(=O)c2ccccc21 (configuration not stated)

-2.75
-0.25
-26.6
20.2
17.7
